- Test system: Mannheimia haemolytica
- TEST: minimum inhibitory concentration (MIC)
- CONDITION SUMMARY: isolate (source animal id): 191
Recorded minimum inhibitory concentration by entry
REPORTED METRIC: minimum inhibitory concentration

[[record]]
molecule = "C=C[C@]1(C)C[C@@H](OC(=O)CSCCN(CC)CC)[C@]2(C)[C@H](C)CC[C@]3(CCC(=O)[C@H]32)[C@@H](C)[C@@H]1O [Tiamulin]"
obs_value = "> 32 µg/mL"

[[record]]
molecule = "CN[C@@H]1[C@H](O)[C@H](NC)[C@H]2O[C@@]3(O)C(=O)C[C@@H](C)O[C@H]3O[C@@H]2[C@H]1O [Spectinomycin]"
obs_value = "32 µg/mL"

[[record]]
molecule = "CC1(C)S[C@@H]2[C@H](NC(=O)Cc3ccccc3)C(=O)N2[C@H]1C(=O)O [Penicillin]"
obs_value = "> 8 µg/mL"

[[record]]
molecule = "CCC[C@@H]1C[C@@H](C(=O)N[C@@H]([C@H]2O[C@H](SC)[C@H](O)[C@@H](O)[C@H]2O)[C@H](C)Cl)N(C)C1 [Clindamycin]"
obs_value = "16 µg/mL"

[[record]]
molecule = "CCN1CCN(c2cc3c(cc2F)c(=O)c(C(=O)O)cn3C2CC2)CC1 [Enrofloxacin]"
obs_value = "≤ 0.12 µg/mL"

[[record]]
molecule = "CCCN1C[C@H](C)[C@@H](O)[C@](C)(O)[C@@H](CC)OC(=O)[C@H](C)[C@@H](O[C@H]2C[C@@](C)(OC)[C@@H](O)[C@H](C)O2)[C@H](C)[C@@H](O[C@@H]2O[C@H](C)C[C@H](N(C)C)[C@H]2O)[C@](C)(O)C[C@H]1C [Gamithromycin]"
obs_value = "2 µg/mL"

[[record]]
molecule = "COc1cc(Cc2cnc(N)nc2N)cc(OC)c1OC.Cc1cc(NS(=O)(=O)c2ccc(N)cc2)no1 [trimethoprim-sulfamethoxazole]"
obs_value = "≤ 2 µg/mL"

[[record]]
molecule = "CC[C@H]1OC(=O)C[C@@H](O)[C@H](C)[C@@H](O[C@@H]2O[C@H](C)[C@@H](O[C@H]3C[C@@](C)(O)[C@@H](O)[C@H](C)O3)[C@H](N(C)C)[C@H]2O)[C@@H](CC=O)C[C@@H](C)C(=O)/C=C/C(C)=C/[C@@H]1CO[C@@H]1O[C@H](C)[C@@H](O)[C@@H](OC)[C@H]1OC [Tylosin]"
obs_value = "> 32 µg/mL"

[[record]]
molecule = "CS(=O)(=O)c1ccc([C@@H](O)[C@@H](CF)NC(=O)C(Cl)Cl)cc1 [Florfenicol]"
obs_value = "> 8 µg/mL"


* * *

- System: Escherichia coli
- TEST: minimum inhibitory concentration (MIC)
- CONDITION SUMMARY: isolate (source animal id): 174
REPORTED METRIC: minimum inhibitory concentration (mg/L)

[[record]]
compound_structure_string = "CC[C@H]1OC(=O)C[C@@H](O)[C@H](C)[C@@H](O[C@@H]2O[C@H](C)[C@@H](O)[C@H](N(C)C)[C@H]2O)[C@@H](CCN2CCCCC2)C[C@@H](C)C(=O)/C=C/C(C)=C/[C@@H]1CN1CCCCC1"
test_target = "Escherichia coli"
reported_metric = "minimum inhibitory concentration"
limit_sign = "="
obs_value = 4

[[record]]
compound_structure_string = "CN[C@@H]1[C@H](O)[C@H](NC)[C@H]2O[C@@]3(O)C(=O)C[C@@H](C)O[C@H]3O[C@@H]2[C@H]1O"
test_target = "Escherichia coli"
reported_metric = "minimum inhibitory concentration"
limit_sign = "="
obs_value = 16

[[record]]
compound_structure_string = "COc1cc(NS(=O)(=O)c2ccc(N)cc2)nc(OC)n1"
test_target = "Escherichia coli"
reported_metric = "minimum inhibitory concentration"
limit_sign = "≤"
obs_value = 256

[[record]]
compound_structure_string = "COc1cc(Cc2cnc(N)nc2N)cc(OC)c1OC.Cc1cc(NS(=O)(=O)c2ccc(N)cc2)no1"
test_target = "Escherichia coli"
reported_metric = "minimum inhibitory concentration"
limit_sign = "≤"
obs_value = 2

